Record form. Attribute: Ki. Fill in for each entry.
Answer in µM, number only, no unit symbol.

Entry c1cncc(OC[C@@H]2CN(CCN3CCc4ccccc43)CCO2)c1 [Compound 21s] , tested on dopamine D3 receptor (Homo sapiens (Human), UniProt P35462), has a reported Ki of 8.36

Entry c1ccc(OC[C@@H]2CN(CCN3CCc4ccccc43)CCO2)cc1 [Compound 19s] , tested on dopamine D3 receptor (Homo sapiens (Human), UniProt P35462), has a reported Ki of 2.83

Entry COc1cccc(OC[C@@H]2CN(CCN3CCc4ccccc43)CCO2)c1 [Compound 25s] , tested on dopamine D3 receptor (Homo sapiens (Human), UniProt P35462), has a reported Ki of 8.29

Entry Clc1cccc(OC[C@@H]2CN(CCN3CCc4ccccc43)CCO2)c1 [Compound 23s] , tested on dopamine D3 receptor (Homo sapiens (Human), UniProt P35462), has a reported Ki of 6.65

* * *

- assayedTarget: dopamine D1 receptor (Homo sapiens (Human), UniProt P21728)
- Sequence (P21728 whole entry): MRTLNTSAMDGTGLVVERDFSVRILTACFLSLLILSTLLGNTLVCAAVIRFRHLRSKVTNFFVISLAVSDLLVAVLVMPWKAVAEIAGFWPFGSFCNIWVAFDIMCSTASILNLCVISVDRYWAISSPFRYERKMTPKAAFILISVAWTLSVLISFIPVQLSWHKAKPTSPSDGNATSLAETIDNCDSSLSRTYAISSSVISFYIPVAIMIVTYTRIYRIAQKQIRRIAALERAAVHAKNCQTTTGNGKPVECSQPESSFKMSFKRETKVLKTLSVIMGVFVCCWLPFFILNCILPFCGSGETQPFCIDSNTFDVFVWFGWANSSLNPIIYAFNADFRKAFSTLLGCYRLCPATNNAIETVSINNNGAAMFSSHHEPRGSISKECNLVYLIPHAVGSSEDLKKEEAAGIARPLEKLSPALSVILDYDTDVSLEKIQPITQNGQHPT
- assayMethodText: Secondary radioligand binding assay, D1
- conditionInfo: average of at least two experiments
pKi: −log10 of the molar value.
measurementType: pKi

So, c1ccc(OC[C@@H]2CN(CCN3CCc4ccccc43)CCO2)cc1 [Compound 19s] ? Its pKi was 5.87

So, c1cncc(OC[C@@H]2CN(CCN3CCc4ccccc43)CCO2)c1 [Compound 21s] ? Its pKi was < 5.00

So, Cc1ccnc(OC[C@H]2CN(CC(=O)N3CCc4ccccc43)CCO2)c1 [Compound 16r] ? Its pKi was < 5.00

So, Cc1ccnc(OC[C@H]2CN(CC(=O)N3c4ccccc4CC3C)CCO2)c1 (some centres unmarked) ? Its pKi was < 5.00

So, Clc1cncc(OC[C@@H]2CN(CCN3CCc4ccccc43)CCO2)c1 [Compound 27s] ? Its pKi was 5.23

So, Cc1ccnc(OC[C@H]2CN(CCN3CCc4ccccc43)CCO2)c1 [Compound 17r] ? Its pKi was < 5.00

So, c1cncc(OC[C@H]2CN(CCN3CCc4ccccc43)CCO2)c1 [Compound 21r] ? Its pKi was < 5.00

So, Clc1cccc(OC[C@@H]2CN(CCN3CCc4ccccc43)CCO2)c1 [Compound 23s] ? Its pKi was 5.69

So, COc1cccc(OC[C@@H]2CN(CCN3CCc4ccccc43)CCO2)c1 [Compound 25s] ? Its pKi was 5.08

So, Cc1ncccc1OC[C@@H]1CN(CC(=O)N2c3ccccc3CC2C)CCO1.Cl (some centres unmarked) ? Its pKi was < 5.00

So, Cc1ncccc1OC[C@@H]1CN(CC(=O)N2c3ccccc3C[C@H]2C)CCO1 ? Its pKi was < 5.00

* * *

- assayedTarget: 5HT1d receptor (Homo sapiens (Human))
- Sequence (P28221 whole entry): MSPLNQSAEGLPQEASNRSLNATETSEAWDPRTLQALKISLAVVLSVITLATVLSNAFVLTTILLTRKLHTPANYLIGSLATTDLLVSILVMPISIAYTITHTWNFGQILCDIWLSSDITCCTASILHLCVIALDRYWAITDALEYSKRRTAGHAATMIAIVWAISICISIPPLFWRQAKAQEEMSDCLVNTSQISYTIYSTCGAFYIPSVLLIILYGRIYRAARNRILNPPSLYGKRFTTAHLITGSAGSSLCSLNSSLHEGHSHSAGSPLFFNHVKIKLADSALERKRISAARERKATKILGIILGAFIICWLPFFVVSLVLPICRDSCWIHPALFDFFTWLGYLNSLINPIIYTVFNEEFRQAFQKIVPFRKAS
- assayMethodText: Secondary radioligand binding assay, 5HT1d;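 note: competition binding against a radioligand on membranes from transfected cell lines, 1.5 h at room temperature, filter-retained radioactivity counted by liquid scintillation, total binding plotted versus log competitor concentration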
- Set-up: key: “—” indicates that a binding interaction was not detected
- conditionInfo: average of at least two experiments
measurementType: Ki 5HT1d

For orientation, consider the following solved cases.
>>> print(df.to_string())
                                   compound  reportedvalue
0  Cc1ncccc1OC[C@@H]1CN(CC(=O)N2c3ccccc3CC2C)CCO1.Cl (stereo partly drawn) [Compound 60]              —
1  Cc1ncccc1OC[C@H]1CN(CC(=O)N2c3ccccc3CC2C)CCO1 (stereo partly drawn) [Compound 62]              —
2  COc1cccc(OC[C@@H]2CN(CC(=O)N3CCc4ccccc43)CCO2)c1 [Compound 24s]              —
3  Cc1ccccc1OC[C@H]1CN(CC(=O)N2c3ccccc3CC2C)CCO1 (stereo partly drawn) [Compound 66]              —
4  Clc1cncc(OC[C@@H]2CN(CCN3CCc4ccccc43)CCO2)c1 [Compound 27s]              —
5  Cc1ccc(OC[C@@H]2CN(CCN3CCc4ccccc43)CCO2)cn1 [Compound 28s]              —
6  CC1Cc2ccccc2N1C(=O)CN1CCO[C@@H](COc2cccc(Cl)c2)C1 (stereo partly drawn) [Compound 65]              —
7  c1ccc(OC[C@H]2CN(CCN3CCc4ccccc43)CCO2)nc1 [Compound 15r]              —

Query compound follows.
So, CC1Cc2ccccc2N1C(=O)CN1CCO[C@@H](COc2ccncc2)C1 (stereo partly drawn) [Compound 68] ? Its Ki 5HT1d was —
